Reference source for all entries: patent US4948782A

- Test system: Staphylococcus aureus ATCC 6538P
- assay overview: MIC, Staphylococcus aureus ATCC 6538P (SA(1))
- Format: cell-based
- cond: Staphylococcus aureus, ATCC6538P, Staphylococcus aureus ATCC 6538P; read-out: MIC SA (1)
reported property: MIC

// known answers, use as guide
CCC1OC(=O)C(C)C(OC2CC(C)(OC)C(O)C(C)O2)C(C)C(OC2OC(C)CC([N+](C)(C)C)C2O)C2(C)CC(C)=C(O2)C(C)C(OC(C)=O)C1(C)OC(C)=O (stereo not drawn) [Compound 2]	100 µg/mL
C#CC[N+](C)(C)[C@H]1C[C@@H](C)O[C@@H](O[C@@H]2[C@@H](C)[C@H](O[C@H]3C[C@@](C)(OC)[C@@H](O)[C@H](C)O3)[C@@H](C)C(=O)O[C@H](CC)[C@@](C)(O)[C@H](O)[C@@H](C)C3O[C@]2(C)CC3C)[C@@H]1O (stereo partly drawn) [Compound 67]	> 100 µg/mL

Endpoint output: MIC of CCC[N+](C)(C)C1CC(C)OC(OC2C(C)C(OC3CC(C)(OC)C(O)C(C)O3)C(C)C(=O)OC(CC)C(C)(O)C(O)C(C)C3=C(C)CC2(C)O3)C1O (stereo not drawn) [Compound 6] . Value? > 100 µg/mL

I'd like to know its MIC. The molecule in question is CCC1OC(=O)C(C)C(OC2CC(C)(OC)C(O)C(C)O2)C(C)C(OC2OC(C)CC([N+]3(C)CCCC3)C2O)C2(C)CC(C)=C(O2)C(C)C(O)C1(C)O (stereo not drawn) [Compound 14] > 100 µg/mL

Value lookup for MIC; key = CCC1OC(=O)C(C)C(OC2CC(C)(OC)C(O)C(C)O2)C(C)C(OC2OC(C)CC([N+](C)(CC)CC)C2O)C2(C)CC(C)=C(O2)C(C)C(O)C1(C)O (stereo not drawn) [Compound 12] > 100 µg/mL

Fill in: MIC of C#CC[N+](CC#C)(CC#C)C1CC(C)OC(OC2C(C)C(OC3CC(C)(OC)C(O)C(C)O3)C(C)C(=O)OC(CC)C(C)(O)C(O)C(C)C3=C(C)CC2(C)O3)C1O (stereo not drawn) [Compound 48] is ___ 100 µg/mL
